EXPERIMENTAL_TARGET: UniProt A0A0L8FVQ9
Sequence (A0A0L8FVQ9 21-399): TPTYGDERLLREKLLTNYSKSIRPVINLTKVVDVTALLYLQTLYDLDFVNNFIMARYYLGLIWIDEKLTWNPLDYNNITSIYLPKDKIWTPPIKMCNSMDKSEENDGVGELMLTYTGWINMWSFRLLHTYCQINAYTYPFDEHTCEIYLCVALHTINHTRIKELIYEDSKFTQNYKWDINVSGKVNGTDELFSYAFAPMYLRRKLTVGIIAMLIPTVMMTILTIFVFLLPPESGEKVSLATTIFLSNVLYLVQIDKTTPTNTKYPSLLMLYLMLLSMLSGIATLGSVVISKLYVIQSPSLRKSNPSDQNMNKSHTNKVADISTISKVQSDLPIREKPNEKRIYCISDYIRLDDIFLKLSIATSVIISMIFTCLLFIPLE
ASSAY_METHOD_TEXT: patch clamp dose-response in HEK […] cells expressing CRT1
Assay type: cell-based
ENDPOINT_LABEL: EC50 (µM)
One number for each entry, in µM.

Provide measured EC50 on UniProt A0A0L8FVQ9 for C[C@H]1CCCC(=O)CCC/C=C/c2cc(O)cc(O)c2C(=O)O1 please.
4.8
